Target: TYK2 (Homo sapiens (Human))
Assay: JAK Caliper Enzyme Assay at 1 mM ATP, TYK2
Type: biochemical
pIC50: −log10 of the molar value.
Readout: pIC50

CS(=O)(=O)N1CC(CC#N)(n2ccc(-c3nc(-c4cncc(N)c4)cc4ncccc34)n2)C1 [Example 193] | 6.83
N#CCC1(n2ccc(-c3nc(-c4ccn[nH]4)cc4ncccc34)n2)CN(S(=O)(=O)C2CC2)C1 [Example 18] | 7.70
N#CCC1(n2ncc(-c3cc(-c4ccc(F)cn4)cc4ncccc34)n2)CC(C#N)C1 (centres unmarked) [Example 348] | 6.84
N#CCC1(n2ccc(-c3nc(-c4ncc[nH]4)cc4ncccc34)n2)CN(CC(F)(F)F)C1 [Example 148] | 6.63
CS(=O)(=O)N1CC(CC#N)(n2ccc(-c3nc(-c4c[nH]c5ncccc45)cc4ncccc34)n2)C1 [Example 159] | 8.15
N#CCC1(n2ncc(-c3cc(-c4ccn[nH]4)cc4ncccc34)n2)CN(S(=O)(=O)C2COC2)C1 [Example 301] | 7.77
CO[C@H]1C[C@@](CC#N)(n2ccc(-c3nc(-c4ccn[nH]4)cc4ncccc34)n2)C1 [Example 31] | 7.28
Cn1cc(-c2cc3ncccc3c(-c3ccn(C4(CC#N)CN(CC#N)C4)n3)n2)cn1 [Example 100] | 7.85

----------
Reported pIC50 values for a set of molecules
Target: TYK2 (Homo sapiens (Human), UniProt P29597)
Sequence (P29597 897-1176): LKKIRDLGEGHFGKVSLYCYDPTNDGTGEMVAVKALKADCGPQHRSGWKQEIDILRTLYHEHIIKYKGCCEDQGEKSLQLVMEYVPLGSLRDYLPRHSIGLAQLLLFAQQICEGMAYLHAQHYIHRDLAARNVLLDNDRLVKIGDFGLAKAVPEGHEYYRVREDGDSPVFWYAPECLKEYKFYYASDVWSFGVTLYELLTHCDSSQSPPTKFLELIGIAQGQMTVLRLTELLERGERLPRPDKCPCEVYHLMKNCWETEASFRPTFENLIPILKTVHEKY
Assay: JAK Caliper Enzyme Assay at 1 mM ATP, TYK2
Type: biochemical
pIC50: −log10 of the molar value.
Readout: pIC50

Cn1cc(-c2cc(-c3ccn(C4(CC#N)CN(CC(F)(F)F)C4)n3)c3cccnc3c2)cn1 | 6.47
CS(=O)(=O)N1CC(CC#N)(n2ccc(-c3nc(-c4cnn5cccnc45)cc4ncccc34)n2)C1 | 6.23
N#CCC1(n2ncc(-c3cc(-c4ccc(C(N)=O)cn4)cc4ncccc34)n2)CC(C#N)C1 (stereo not drawn) [Example 352] | 7.57
N#CCC1(n2ccc(-c3nc(-c4cc(CO)[nH]n4)cc4ncccc34)n2)CC(C#N)C1 (stereo not drawn) | 7.82
Cn1ncc(-c2cc(-c3cnn([C@]4(CC#N)C[C@@H](C#N)C4)n3)c3cccnc3c2)c1C(N)=O [Example 335] | 5.28
Cc1cc(-c2cc3ncccc3c(-c3ccn([C@]4(CC#N)C[C@@H](C#N)C4)n3)n2)n[nH]1 | 7.85
CN(C)c1ccc(-c2cc3ncccc3c(-c3ccn(C4(CC#N)CN(S(C)(=O)=O)C4)n3)n2)cn1 | 7.85
N#CC[C@]1(n2ccc(-c3nc(-c4cc[nH]n4)cc4ncccc34)n2)C[C@@H](C(N)=O)C1 | 6.78
N#CC[C@H]1C[C@](CC#N)(n2cc(-c3nc(-c4cn[nH]c4)cc4ncccc34)cn2)C1 | 7.30
CS(=O)(=O)Nc1ccc(-c2cc3ncccc3c(-c3ccn([C@]4(CC#N)C[C@@H](C#N)C4)n3)n2)cc1 | 7.96
Cn1cc(-c2cc3ncccc3c(-c3ccn([C@]4(CC#N)C[C@H](C#N)C4)n3)n2)cn1 | 8.15
N#CCC1(n2ccc(-c3nc(-c4ccnc(C(N)=O)c4)cc4ncccc34)n2)CN(CC(F)(F)F)C1 | 6.76
Cc1cc(-c2cc3ncccc3c(-c3ccn([C@]4(CC#N)C[C@@H](C#N)C4)n3)n2)cc(N)n1 | 7.04
N#CC[C@]1(n2ccc(-c3nc(-c4cc5n(n4)CCNC5)cc4ncccc34)n2)C[C@H](C#N)C1 | 7.48
N#CC[C@]1(n2ncc(-c3cc(-c4cc(N)[nH]n4)cc4ncccc34)n2)C[C@@H](C#N)C1 | 8.15
